A collection of compounds and their measured composite z-score
subject.of.test: Carbonic anhydrase 2 (Homo sapiens)
assay.remarks: CAII small-molecule binders, profiling panel, biochemical, small-molecule microarray, Alexa647-labelled CAII (AID 1122)
particulars: CAII-A647 binding fluorescence, higher = more signal

| compound | subject.of.test | composite z-score |
| --- | --- | --- |
| COCCOC(=O)N1C(=O)[C@@]2(c3cc(C#CCCO)ccc31)[C@H](C(=O)Nc1nc3ccccc3s1)[C@H]1C(=O)O[C@H](c3ccccc3)[C@H](c3ccccc3)N1[C@@H]2c1ccccc1OCCO | Carbonic anhydrase 2 (Homo sapiens) | 0.542 |
| COc1cc2c(cc1OC)CN(C(=O)[C@@H]1[C@H]3C(=O)O[C@H](c4ccccc4)[C@H](c4ccccc4)N3[C@H](c3ccc(OCCO)cc3)[C@@]13C(=O)Nc1ccc(C#CC4(O)CCCCCC4)cc13)CC2 | Carbonic anhydrase 2 (Homo sapiens) | 0.543 |
| COCCOC(=O)N1C(=O)[C@@]2(c3cc(C#CC4=CCCCC4)ccc31)[C@H](C(=O)N1CCCCCCC1)[C@H]1C(=O)O[C@H](c3ccccc3)[C@H](c3ccccc3)N1[C@@H]2c1ccc(O)cc1 | Carbonic anhydrase 2 (Homo sapiens) | 0.334 |
| Cn1cccc1C(O)C1C=CC2C(=O)NC(=O)C2N1Nc1ccc(Cl)cc1Cl (stereo unspecified) | Carbonic anhydrase 2 (Homo sapiens) | 0.731 |
| O=C1NC(=O)C2C1C=CC(C(O)c1ccco1)N2Nc1ccccn1 (stereo unspecified) | Carbonic anhydrase 2 (Homo sapiens) | 0.713 |
| C=CCOC(=O)[C@H]1[C@@H]2C(=O)O[C@@H](c3ccccc3)[C@@H](c3ccccc3)N2[C@@H](c2ccc(OCCOC(=O)[C@@H]3C[C@@H]4C(=O)N5CCC[C@H]5C(=O)N4[C@@H]3c3ccc(O)cc3)cc2)[C@]12C(=O)Nc1ccc(I)cc12 | Carbonic anhydrase 2 (Homo sapiens) | 0.0118 |

* * *

assay.remarks: basal 3T3-L1 adipocyte mitochondrial potential changes, profiling panel, cell-based, JC-1 fluorescence, 3T3-L1 adipocytes, 24 h, 100 nL compound (AID 1168); further: test concentration not given here
particulars: JC-1 mitochondrial fluorescence, higher = more signal, called active from +8 up or from −8 down
Measured z-score values are reported for all entries that follow.
measurement.name: z-score

| molecule | measurement.name | reported.measurement |
| --- | --- | --- |
| C=CCNC(=O)[C@H]1[C@@H]2C(=O)O[C@@H](c3ccccc3)[C@@H](c3ccccc3)N2[C@@H](c2ccc(O)cc2)[C@]12C(=O)N(C(=O)OCCOC)c1ccccc12 | z-score | 0.0113 |
| COC(=O)[C@@]1(Cc2ccccc2)[C@H]2c3cc(C(=O)N(C)C)n(CCc4ccc(O)c(OC)c4)c3C[C@H]2CN1C(=O)c1ccccc1 | z-score | -0.9 |
| C=CCC(OC(C)=O)[C@@H]1[C@@H](N(Cc2cc3ccccc3o2)C(=O)c2ccc(C)cc2)c2cc(OCCCO)ccc2N1C(=O)Cc1ccc(OC)cc1 (stereo partly specified) | z-score | 0.235 |
| COC(=O)c1cn(C[C@@H](Cc2ccccc2)NC(=O)N[C@H](CO)CCc2oc(C(C)=O)c(C(=O)OC)c2C(=O)OC)nn1 | z-score | 1.09 |
| COCCOC(=O)N1C(=O)[C@@]2(c3cc(C#CCNC(N)=O)ccc31)[C@H](C(=O)N1CCc3cc(OC)c(OC)cc3C1)[C@H]1C(=O)O[C@H](c3ccccc3)[C@H](c3ccccc3)N1[C@@H]2c1ccccc1OCCO | z-score | 1.72 |
| CCOc1cc(C(O)C2C=CC3C(=O)N(C)C(=O)C3N2Nc2ccccc2)ccc1O (stereo unspecified) | z-score | -0.725 |

* * *

Listing of recorded composite z-score by entry.
subject.of.test: E3 ubiquitin-protein ligase XIAP (Homo sapiens)
assay.remarks: XIAP binders, primary screen, biophysical, small-molecule microarray, fluorescence 635 nm (AID 1181);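 further: score merges 667 nm emission and signal to noise over triplicate slides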
particulars: small-molecule microarray binding, higher = more signal

| molecule | subject.of.test | composite z-score |
| --- | --- | --- |
| C=CC[C@@]1(C(=O)N2CCOCC2)N=C(c2ccc(OCCCO)cc2)O[C@@H]1c1ccccc1CN=[N+]=[N-] | E3 ubiquitin-protein ligase XIAP (Homo sapiens) | 0.184 |
| COC(=O)[C@H](Cc1ccccc1)N1CC(/C=C/C2CC2)=C[C@H]1[C@H](O)Cc1ccccc1 | E3 ubiquitin-protein ligase XIAP (Homo sapiens) | -0.102 |
| COC(=O)c1c2oc(c1C(=O)OC)C(=O)N(C)Cc1cn(nn1)C[C@H](Cc1ccccc1)NC(=O)N[C@H](CO)CC2 | E3 ubiquitin-protein ligase XIAP (Homo sapiens) | -0.0559 |
| CCOC(=O)[C@H]1[C@@H]2C(=O)N3CCC[C@H]3[C@H](O[Si](C(C)C)(C(C)C)C(C)C)[C@H]2C=C2CCN(S(=O)(=O)c3ccc(C)cc3)C[C@H]21 | E3 ubiquitin-protein ligase XIAP (Homo sapiens) | -0.148 |
| COc1ccccc1CN1C(=O)c2ccccc2[C@@]2(Cc3ccccc3N(CC(F)(F)F)C2=O)[C@@H]1c1ccc(CO)cc1 | E3 ubiquitin-protein ligase XIAP (Homo sapiens) | 0.0819 |
| O=C1O[C@H](c2ccccc2)[C@H](c2ccccc2)N2[C@H]1[C@@H](C(=O)NC[C@H](O)c1ccccc1)[C@]1(C(=O)Nc3ccc(C#CCCO)cc31)[C@H]2c1ccc(OCCO)cc1 | E3 ubiquitin-protein ligase XIAP (Homo sapiens) | 0.283 |
| COc1ccc([Si](C)(C)[C@H]2[C@H](CCO)O[C@@]3(C(=O)N(Cc4cccc(N5C(=O)COc6ccccc65)c4)c4ccccc43)[C@@H]2C)cc1 | E3 ubiquitin-protein ligase XIAP (Homo sapiens) | -0.132 |
| COC(=O)[C@@]1(Cc2ccccc2)[C@H]2c3cc(C(=O)N(C)C)n(Cc4c(CO)[nH]cc(C)c4=O)c3C[C@H]2CN1C(=O)c1ccccc1 | E3 ubiquitin-protein ligase XIAP (Homo sapiens) | -0.0663 |
| CN1C(=O)C2C=CC(C(O)COCc3ccccc3)N(N(c3ccccc3)c3ccccc3)C2C1=O (centres undefined) | E3 ubiquitin-protein ligase XIAP (Homo sapiens) | 0.0537 |
| CCCCC(O)C1C=CC2C(=O)N(c3ccccc3)C(=O)C2N1Nc1ccc(C(C)C)cc1 (centres undefined) | E3 ubiquitin-protein ligase XIAP (Homo sapiens) | 0.199 |
| C=CCNC(=O)[C@H]1[C@@H]2C(=O)O[C@@H](c3ccccc3)[C@@H](c3ccccc3)N2[C@@H](c2ccc(O)cc2)[C@]12C(=O)Nc1ccc(C#CC3(O)CCCCCC3)cc12 | E3 ubiquitin-protein ligase XIAP (Homo sapiens) | -0.0622 |
| CCCC[C@@H]1C[C@H]1[C@@H](NC(=O)c1ccccc1)c1ccc(C(F)(F)F)cc1 | E3 ubiquitin-protein ligase XIAP (Homo sapiens) | -0.369 |
| C=CCC(OC(C)=O)[C@@H]1[C@@H](N(Cc2cccc3ccccc23)C(=O)Cc2ccc(F)cc2)c2cc(OCCCO)ccc2N1C(=O)c1ccc2ccccc2n1 (some centres undefined) | E3 ubiquitin-protein ligase XIAP (Homo sapiens) | 0.357 |
| O=C1O[C@@H](c2ccccc2)[C@@H](c2ccccc2)N2[C@@H](c3ccc(OCCO)cc3)[C@]3(C(=O)Nc4ccccc43)[C@@H](C(=O)O)[C@H]12 | E3 ubiquitin-protein ligase XIAP (Homo sapiens) | -0.0339 |

* * *

assay.remarks: P. aeruginosa biofilm formation inhibitors, primary screen, PAO1 strain, BacTiter-Glo luminescence, LB-PBS (AID 1144)
particulars: 12 h, higher = more signal
measurement.name: z-score

| structure.smiles.string | measurement.name | reported.measurement |
| --- | --- | --- |
| [N-]=[N+]=NCc1ccccc1C[C@@]1(C(=O)N2CCCCC2)N=C(c2ccc(OCCCO)cc2)O[C@@H]1c1ccccc1 | z-score | 0.914 |
| C=C(COC)/C(=C/C[C@H](OC(=O)c1ccncc1)c1ccccc1OCCO)c1cnc2ccccc2c1 | z-score | -1.13 |
| CN(C)C(=O)[C@@]1(CCS(=O)(=O)c2ccccc2)N=C(c2ccc(OCCCO)cc2)O[C@H]1c1ccccc1 | z-score | 1.02 |
| CN(C)CCCNC(=O)[C@@H]1c2ccccc2C(=O)N(Cc2ccccc2Cl)[C@H]1c1ccc(CO)cc1 | z-score | 0.388 |

* * *

subject.of.test: Neurogenic locus notch homolog protein 3 (Homo sapiens) (UniProt Q9UM47)
Sequence (Q9UM47 whole entry, looked up): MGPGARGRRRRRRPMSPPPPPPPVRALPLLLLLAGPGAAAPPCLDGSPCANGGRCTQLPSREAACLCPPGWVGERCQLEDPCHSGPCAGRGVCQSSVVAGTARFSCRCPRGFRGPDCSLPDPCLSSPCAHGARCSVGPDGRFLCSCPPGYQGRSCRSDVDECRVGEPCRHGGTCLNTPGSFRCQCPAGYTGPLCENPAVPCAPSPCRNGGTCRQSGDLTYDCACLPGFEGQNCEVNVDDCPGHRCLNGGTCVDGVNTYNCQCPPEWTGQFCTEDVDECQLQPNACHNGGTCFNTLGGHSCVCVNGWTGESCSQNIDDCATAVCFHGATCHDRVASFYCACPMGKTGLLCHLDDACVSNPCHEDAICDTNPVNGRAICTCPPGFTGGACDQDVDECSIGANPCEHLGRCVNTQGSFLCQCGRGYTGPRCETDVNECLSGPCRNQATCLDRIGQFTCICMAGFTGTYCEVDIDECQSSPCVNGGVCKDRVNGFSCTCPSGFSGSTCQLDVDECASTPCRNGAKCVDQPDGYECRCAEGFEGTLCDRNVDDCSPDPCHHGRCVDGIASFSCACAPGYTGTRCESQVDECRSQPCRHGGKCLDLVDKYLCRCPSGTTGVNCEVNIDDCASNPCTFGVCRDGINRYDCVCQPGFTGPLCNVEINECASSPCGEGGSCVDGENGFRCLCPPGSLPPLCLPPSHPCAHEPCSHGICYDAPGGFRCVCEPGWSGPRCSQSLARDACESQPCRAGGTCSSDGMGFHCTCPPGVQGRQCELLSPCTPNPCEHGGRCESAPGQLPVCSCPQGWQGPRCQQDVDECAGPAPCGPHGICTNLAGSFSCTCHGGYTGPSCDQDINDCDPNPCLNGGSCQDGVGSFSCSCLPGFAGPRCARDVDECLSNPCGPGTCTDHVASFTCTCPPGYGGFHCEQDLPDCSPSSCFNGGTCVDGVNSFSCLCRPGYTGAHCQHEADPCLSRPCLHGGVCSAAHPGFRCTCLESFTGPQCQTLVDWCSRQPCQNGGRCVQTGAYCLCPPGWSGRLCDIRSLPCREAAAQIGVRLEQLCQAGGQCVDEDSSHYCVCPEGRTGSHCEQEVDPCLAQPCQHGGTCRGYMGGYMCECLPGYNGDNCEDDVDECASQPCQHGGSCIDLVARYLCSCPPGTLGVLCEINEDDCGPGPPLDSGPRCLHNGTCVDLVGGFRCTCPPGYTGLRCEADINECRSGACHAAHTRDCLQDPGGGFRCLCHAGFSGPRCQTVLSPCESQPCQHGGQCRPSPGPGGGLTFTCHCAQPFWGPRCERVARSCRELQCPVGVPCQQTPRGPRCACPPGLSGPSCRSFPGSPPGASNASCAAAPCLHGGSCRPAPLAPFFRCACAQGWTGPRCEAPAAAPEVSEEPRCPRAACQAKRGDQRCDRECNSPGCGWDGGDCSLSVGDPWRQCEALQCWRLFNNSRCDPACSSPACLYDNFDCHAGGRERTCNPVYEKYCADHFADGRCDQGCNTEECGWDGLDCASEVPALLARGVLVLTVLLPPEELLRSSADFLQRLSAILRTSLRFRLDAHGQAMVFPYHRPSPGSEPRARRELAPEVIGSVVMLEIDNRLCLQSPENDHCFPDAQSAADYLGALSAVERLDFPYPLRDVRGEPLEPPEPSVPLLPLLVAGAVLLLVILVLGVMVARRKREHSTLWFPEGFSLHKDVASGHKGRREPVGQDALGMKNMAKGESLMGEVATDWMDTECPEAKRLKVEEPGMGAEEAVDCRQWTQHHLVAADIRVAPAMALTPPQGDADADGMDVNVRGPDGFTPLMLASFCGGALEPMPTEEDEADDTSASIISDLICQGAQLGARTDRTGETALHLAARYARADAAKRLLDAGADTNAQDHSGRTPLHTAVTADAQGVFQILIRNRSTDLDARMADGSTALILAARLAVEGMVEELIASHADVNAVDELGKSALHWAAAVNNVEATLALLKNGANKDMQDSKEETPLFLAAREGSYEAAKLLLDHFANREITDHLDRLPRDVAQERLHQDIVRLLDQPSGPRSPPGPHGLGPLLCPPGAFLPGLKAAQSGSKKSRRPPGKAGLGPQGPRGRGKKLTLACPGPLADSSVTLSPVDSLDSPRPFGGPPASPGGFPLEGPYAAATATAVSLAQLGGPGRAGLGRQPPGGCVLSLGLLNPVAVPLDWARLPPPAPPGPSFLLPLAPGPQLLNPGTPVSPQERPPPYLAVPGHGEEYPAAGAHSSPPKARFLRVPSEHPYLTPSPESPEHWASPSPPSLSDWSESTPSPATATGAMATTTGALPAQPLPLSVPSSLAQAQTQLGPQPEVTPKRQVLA
assay.remarks: NOTCH3 binders on small-molecule microarray, primary screen, biochemical, 635/667 nm fluorescence (AID 1096)
particulars: NOTCH3 binding, 635 nm fluorescence, higher = more signal
Measured composite z-score by item

| molecule | composite z-score |
| --- | --- |
| CO[C@H]1O[C@H](CO)[C@@H](OC(=O)Nc2ccccc2-c2ccccc2)[C@H](OC(=O)Nc2ccc3c(c2)OCO3)[C@H]1OC(=O)Nc1ccc2c(c1)OCO2 | 1.12 |
| CC(C)N1C(=O)c2ccccc2[C@@H](C(=O)NC2CC2)[C@@H]1c1ccc(CO)cc1 | -0.201 |
| CCCCCCCCCCC(O)C1C=CC2C(=O)N(C)C(=O)C2N1NC(=O)OC(C)(C)C (centres undefined) | 0.0249 |
| COCCOC(=O)N1C(=O)[C@@]2(c3cc(C#CC4=CCCCC4)ccc31)[C@H](c1ccc(OCCO)cc1)N1[C@H](c3ccccc3)[C@H](c3ccccc3)OC(=O)[C@H]1[C@@H]2C(=O)NC[C@H](O)c1ccccc1 | 1.07 |
| COCCOC(=O)N1C(=O)[C@@]2(c3cc(C#Cc4ccc(OC)cc4)ccc31)[C@H](C(=O)Nc1nc3ccccc3s1)[C@H]1C(=O)O[C@H](c3ccccc3)[C@H](c3ccccc3)N1[C@@H]2c1ccc(OCCO)cc1 | 1.13 |
| COc1ccc(CCNC(=O)[C@@]2(Sc3ccc(C)cc3)CC(=O)N(C3Cc4ccccc4C3)[C@@H]2c2ccc(CO)cc2)cc1 | 1.02 |
| C=C(CCCC)/C(=C/C[C@@H](OC(=O)c1ccncc1)c1ccccc1OCCO)c1cnc2ccccc2c1 | 1.05 |
| CC(C)(C)N1CC=CC23O[C@@H]4C=CCOC(=O)[C@@H]4[C@H]2C(=O)N(CCCCCCO)[C@@H]3C1=O (some centres undefined) | -0.729 |
| CCC[C@@H]1C[C@@]1(CCC)[C@@H](NC(=O)OCc1ccccc1)c1ccc(-c2ccccc2)cc1 | -0.621 |
| CO[C@]12C=C(Br)[C@@H](C[C@@H]1c1cccc(C)c1)[C@@]1(CO1)C2=O | 0.537 |
| C=CCC(OC(C)=O)[C@@H]1[C@@H](N(Cc2ccc(-c3cccc(C(F)(F)F)c3)o2)C(=O)c2ccc(-c3ccccc3)cc2)c2cc(OCCCO)ccc2N1C(=O)c1ccc2ccccc2n1 (some centres undefined) | 0.0478 |
| C=CCOC(=O)[C@H]1[C@@H]2C(=O)O[C@@H](c3ccccc3)[C@@H](c3ccccc3)N2[C@@H](c2ccc(OCCOC(=O)[C@@H]3C[C@@H]4C(=O)N[C@@H](CCCCN(C)C)C(=O)N4[C@@H]3c3ccc(O)cc3)cc2)[C@]12C(=O)Nc1ccccc12 | 1.05 |
| CN1C(=O)C2C=CC(C(O)COCc3ccccc3)N(N(c3ccccc3)c3ccccc3)C2C1=O (centres undefined) | 0.894 |
| CCCCCCc1nc(C2CC2)cc2c1[Si](C(C)C)(C(C)C)OC2 | -0.861 |
